test system: CHO parental cells; assay: FACS binding of anti-EpCAM antibodies to CHO parental cells; design: species or system Chinese hamster; details: antibody 0.1 μg/ml; HPS at 300x dilution
experimentalReadout: Binding (FACS, Mean fluorescence intensity (MFI)) CHO
Could you keep your reply to the number by itself?

molecule 1F10: murine anti-human EpCAM monoclonal antibody (IgG1, λ1), hybridoma m338-1F10.3; VH SEQ ID NO:11, VL SEQ ID NO:13 (antibody, listed as Mus musculus, V domains shown) VH: EVKLLESGGGLVQPGGSLKLSCAASGFDFSRYWMSWVRQAPGKGLEWIGEINPDSSTMNYTPSLKDKFIISRDNAKNTLYLQMSKVRSEDTALYYCARGAYAMDYWGQGTSVTVSS VL: QAVVTQESALTTSPGETVTLTCRSSTGAVTTSNNANWVQEKPDHLFTGLIGATNNRAPGVPARFSGSLIGDKAALTITGAQTEDEAIYFCALWYINHWVFGGGTKLTVLG , Binding (FACS, Mean fluorescence intensity (MFI)) CHO observed: 6

Where do the numbers come from? From patent US20110165161A1.
